Answer each item with its documented protein stability index.
# testMethodNotes: protein stability index of a GFP-peptide fusion (yeast GPS) (PSI 1-4); higher = more stable; sorted into four equal gates, so the index is relative within each strain
# conditionSet: doa10∆
Give bare numbers.

Recorded results for 5 sequences are shown here.
VQLKDANSQIQAYEEII [YIL149C/MLP2]
2.69
IQSKRLRNKIAGYTTHL [RPS17A]
3.16
LQRQQRKSKLNLDNLQK [POP4]
2.72
LSCVKNDTISEDILQGI [NUT1]
2.69
QFQRLAPSLTVPPIASP [PRE2]
2.14

Batch of 5 sequences: report protein stability index for each.
1. SNIELAFSSVEHIIRDV [COB]
2. NVVEADLKRFVDESLLS [QCR2]
3. GTSTTHGSISPQEESVS [SIR3]
4. PVIDTQIANEFNTQQGI [YDL116W/NUP84]
5. QQDQPEQSEQPEQHQDK [RPN10]

Response:
[3, 3.14, 2.14, 2.77, 3.04]

Batch of 2 sequences: report protein stability index for each.
1. NVSDEQLSNWQKIRNSE [ITC1]
2. KPLFDFGKTGDQKETKK [YOR098C/NUP1]

Response:
1. 3.15
2. 3.3

Batch of 3 sequences: report protein stability index for each.
1. SSIDRGFGRCETRRKTT [RET1]
2. EFIAHRLGLIPLQSMDI [RPB3]
3. SYLSNSLDTSASTINGA [YML103C/NUP188]

Response:
[2.41, 2.69, 2.31]

Batch of 3 sequences: report protein stability index for each.
1. QIQFTPLIKKIKYEPRF [SMC3]
2. ASLTAARTAANSIYCPT [RPN6]
3. RKFERARGRRRSKGFKV [RPL18A]

Response:
[2.62, 2.53, 3.28]

Batch of 4 sequences: report protein stability index for each.
1. DIPELSFFHQSNMQKSL [RPN3]
2. EMGKLRERDITSLFHKF [RRI2]
3. IASEVLIKQVPRLLGPQ [RPL1A]
4. NYGIVELDPECQLQNSD [RRP43]

Response:
[2.56, 1.8, 2.28, 2.96]

Batch of 3 sequences: report protein stability index for each.
1. EKKLMQDNKQLYQIWIV [YDL116W/NUP84]
2. TVHKTFEGNVATKAING [PRP8]
3. AAAYSHELPRYGITHGL [RPL5]

Response:
2.06
2.85
2.64

Batch of 5 sequences: report protein stability index for each.
1. LMVFNDDTKNQDSMSKG [YGR119C/NUP57]
2. ANETDKRPTPPSFTFGG [YOR098C/NUP1]
3. DEDKNFPRSRSRSRSSI [ESC2]
4. TTTNTDQNNATMGEETA [SNF12]
5. LKLGLVEYLDVNEENDS [RET1]

Response:
1. 3.04
2. 3.01
3. 3.13
4. 3.3
5. 3.11
